target.under.test: Dipeptidyl peptidase 9 (Homo sapiens, UniProt Q86TI2)
Sequence (Q86TI2 whole entry): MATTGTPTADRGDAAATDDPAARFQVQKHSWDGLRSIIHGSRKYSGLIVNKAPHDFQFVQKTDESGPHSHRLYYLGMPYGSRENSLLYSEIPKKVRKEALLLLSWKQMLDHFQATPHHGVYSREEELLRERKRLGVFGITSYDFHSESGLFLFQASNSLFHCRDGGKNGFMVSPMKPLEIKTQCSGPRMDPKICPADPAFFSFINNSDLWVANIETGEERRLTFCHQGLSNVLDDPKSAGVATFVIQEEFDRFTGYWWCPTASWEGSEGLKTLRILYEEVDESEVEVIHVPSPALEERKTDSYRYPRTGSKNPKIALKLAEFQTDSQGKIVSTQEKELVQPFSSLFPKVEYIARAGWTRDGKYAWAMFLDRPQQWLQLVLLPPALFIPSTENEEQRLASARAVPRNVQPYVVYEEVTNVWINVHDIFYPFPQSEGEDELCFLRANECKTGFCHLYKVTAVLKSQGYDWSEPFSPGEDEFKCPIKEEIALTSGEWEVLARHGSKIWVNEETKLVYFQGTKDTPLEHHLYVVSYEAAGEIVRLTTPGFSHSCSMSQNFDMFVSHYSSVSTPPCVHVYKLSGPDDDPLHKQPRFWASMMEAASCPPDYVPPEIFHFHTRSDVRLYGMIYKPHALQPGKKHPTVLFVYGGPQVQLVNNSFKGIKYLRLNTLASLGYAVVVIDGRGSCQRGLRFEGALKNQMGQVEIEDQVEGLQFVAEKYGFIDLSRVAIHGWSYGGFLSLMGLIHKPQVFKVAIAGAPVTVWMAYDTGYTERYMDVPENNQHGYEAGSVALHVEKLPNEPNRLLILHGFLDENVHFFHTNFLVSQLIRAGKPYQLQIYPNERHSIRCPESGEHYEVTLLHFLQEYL
reported.endpoint: IC50 (µM)
Answers are plain numbers, in µM.

q: Hello, I am looking for reported IC50 with Dipeptidyl peptidase 9 (Homo sapiens, UniProt Q86TI2) for Cl.N[C@@H](CC(=O)N1CCCCCN1C(=O)c1ccccc1)Cc1cc(F)c(F)cc1F . Could you help?
a: 48.7

###

target.under.test: Aminopeptidase N (Homo sapiens)
Sequence (P15144 whole entry): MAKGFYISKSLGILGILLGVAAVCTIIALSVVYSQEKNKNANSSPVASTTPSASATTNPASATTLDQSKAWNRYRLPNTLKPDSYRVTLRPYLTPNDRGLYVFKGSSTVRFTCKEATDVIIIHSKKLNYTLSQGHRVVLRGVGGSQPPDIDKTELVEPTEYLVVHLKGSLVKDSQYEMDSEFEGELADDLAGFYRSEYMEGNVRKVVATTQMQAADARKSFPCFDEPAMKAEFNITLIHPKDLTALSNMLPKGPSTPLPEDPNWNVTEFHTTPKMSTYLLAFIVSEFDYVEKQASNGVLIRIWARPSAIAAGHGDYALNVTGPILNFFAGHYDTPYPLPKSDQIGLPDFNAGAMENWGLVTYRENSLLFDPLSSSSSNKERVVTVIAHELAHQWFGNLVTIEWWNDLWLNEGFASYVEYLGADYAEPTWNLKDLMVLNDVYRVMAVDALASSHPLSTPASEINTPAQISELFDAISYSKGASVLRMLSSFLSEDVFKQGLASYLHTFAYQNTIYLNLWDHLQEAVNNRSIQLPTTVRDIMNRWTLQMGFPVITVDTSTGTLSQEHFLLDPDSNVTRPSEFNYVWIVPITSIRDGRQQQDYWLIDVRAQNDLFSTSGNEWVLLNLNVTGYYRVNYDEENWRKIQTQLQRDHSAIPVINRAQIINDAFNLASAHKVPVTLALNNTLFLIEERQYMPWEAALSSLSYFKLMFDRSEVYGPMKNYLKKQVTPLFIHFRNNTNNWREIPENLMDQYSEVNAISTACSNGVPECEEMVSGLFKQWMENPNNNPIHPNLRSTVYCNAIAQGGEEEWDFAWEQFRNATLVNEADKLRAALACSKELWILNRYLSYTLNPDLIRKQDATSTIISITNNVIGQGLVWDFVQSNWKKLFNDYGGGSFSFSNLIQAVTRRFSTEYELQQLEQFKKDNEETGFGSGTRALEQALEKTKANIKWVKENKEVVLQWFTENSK
pIC50: −log10 of the molar value.
reported.endpoint: pIC50

* Cl.N[C@@H](CC(=O)N1CCCCCN1C(=O)c1ccccc1)Cc1cc(F)c(F)cc1F | < 4.00

q: So what's the measured pIC50 for this one? N[C@@H](CC(=O)N1CCCCN1C(=O)c1ccccc1)Cc1cc(F)c(F)cc1F
a: < 4.00

###

protocol.details: Inhibition of elastase
Design: species or system Homo sapiens
Please respond with reported IC50 for every item in the list.

- Cl.N[C@@H](CC(=O)N1CCCCCN1C(=O)c1ccccc1)Cc1cc(F)c(F)cc1F: > 100 µM

q: Which measured IC50 value corresponds to N[C@@H](CC(=O)N1CCCCN1C(=O)c1ccccc1)Cc1cc(F)c(F)cc1F ?
a: > 100 µM

###

target.under.test: Dipeptidyl peptidase 2 (Homo sapiens)
reported.endpoint: pIC50
Numbers only, as −log10 of the molar value.

• N[C@@H](CC(=O)N1CCCCN1C(=O)c1ccccc1)Cc1cc(F)c(F)cc1F = 4.14

q: Which pIC50 is listed for Cl.N[C@@H](CC(=O)N1CCCCCN1C(=O)c1ccccc1)Cc1cc(F)c(F)cc1F ?
a: 4.74
